- SYSTEM_TESTED: Ubiquitin carboxyl-terminal hydrolase 28 (Homo sapiens)
- EXPERIMENTAL_DETAILS: Concentration-response biochemical assay confirming initial hits as inhibitors of ubiquitin-specific protease 28 (AID 1645866)
- MEASUREMENT_CONDITIONS: purified USP28, ubiquitin-rhodamine fluorescence, 30 min
Activity calls are given as the source filed them.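 The calls were made as follows: active = in confirmatory dose-response testing, peak deubiquitinase inhibition of 30% or more; inactive = the rest.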
Please state which outcome applies, choosing from active, inactive

Query block: I'd appreciate the recorded outcome for Cc1cccc(Cl)c1NC(=O)Nc1ccc(NC(=O)c2ccccc2O)cc1 from this test.
Result block: active

Query block: I'd appreciate the recorded outcome for CN(Cc1ccccc1)S(=O)(=O)c1ccc(S(=O)(=O)N2CCN(C(=O)c3cccnc3)CC2)cc1 from this test.
Result block: active

Query block: Please indicate how the test categorized COc1cccc(NC(=O)CCc2c(C)nn(-c3cc(N4CCCCC4)ncn3)c2C)c1 .
Result block: active

Query block: Status in this test for CO[C@H]1CC[C@H](O)c2c1oc1c3c4c(c(O)c1c2=O)-c1c(cc2c(Cl)c(C)n(N)c(=O)c2c1O)C[C@@H]4OCO3 ?
Result block: active

Query block: // return assay outcome for COCCCn1c(C(=O)Nc2ccccc2OC)cc2c(=O)n3ccccc3nc21
Result block: active

Query block: Can you look up the reported call for Cc1ccc(C)c(S(=O)(=O)N2CCN(c3ccc4nnc(-c5ccco5)n4n3)CC2)c1 for me?
Result block: inactive

Query block: GET /call?item= COc1cccc2c1NC(=O)C21CCN(C(=O)Nc2cccc3ccccc23)CC1 returns the recorded outcome of this test.
Result block: inactive

Query block: Status in this test for CCOc1ccc(NC(=O)c2nc3c(=O)[nH]c4cc(C)ccc4n3n2)cc1 ?
Result block: active

Query block: Could you check what this test reported for CCOc1ccccc1C(=O)Nc1ccc2c(c1)Sc1ncccc1C(=O)N2C ?
Result block: active

// data source = PubChem BioAssay AID1645866
